Where do the numbers come from? From the Human Domainome abundance scans (Beltran et al. 2025).

B1: SAM and SH3 domain-containing protein 1, residues 630 to 700; numbered along this chain, O94885 (parent)
chain: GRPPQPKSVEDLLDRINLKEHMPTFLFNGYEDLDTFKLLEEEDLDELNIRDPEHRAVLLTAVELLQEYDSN

- Variants of: B1
- Test Description: abundance fitness (aPCA) (normalised: wild type 0, dead -1); higher = more abundant; growth selection in yeast, the domain comes from the species named
- Conditions Used: Homo sapiens
abundance fitness of -0.3 or higher: 1. Under -0.3: -1.

variant_key=P4C classification=1

[in] # check: abundance fitness of L47Y is greater than or equal to -0.3
[out] -1

[in] # check: abundance fitness of Q66W is greater than or equal to -0.3
[out] 1

[in] # check: abundance fitness of D43E is greater than or equal to -0.3
[out] -1

[in] # check: abundance fitness of E42I is greater than or equal to -0.3
[out] -1

[in] # check: abundance fitness of G1V is greater than or equal to -0.3
[out] 1

[in] # check: abundance fitness of E10M is greater than or equal to -0.3
[out] -1

[in] # check: abundance fitness of R2C is greater than or equal to -0.3
[out] -1

[in] # check: abundance fitness of Q66F is greater than or equal to -0.3
[out] -1

[in] # check: abundance fitness of E53C is greater than or equal to -0.3
[out] 1
